target: EPHB1 (UniProt P54762); assay: phosphorylation enrichment, bacterial display (enrichment ratio); higher = better substrate or ligand; peptides without Tyr show the background
Sequence (P54762 whole entry, looked up): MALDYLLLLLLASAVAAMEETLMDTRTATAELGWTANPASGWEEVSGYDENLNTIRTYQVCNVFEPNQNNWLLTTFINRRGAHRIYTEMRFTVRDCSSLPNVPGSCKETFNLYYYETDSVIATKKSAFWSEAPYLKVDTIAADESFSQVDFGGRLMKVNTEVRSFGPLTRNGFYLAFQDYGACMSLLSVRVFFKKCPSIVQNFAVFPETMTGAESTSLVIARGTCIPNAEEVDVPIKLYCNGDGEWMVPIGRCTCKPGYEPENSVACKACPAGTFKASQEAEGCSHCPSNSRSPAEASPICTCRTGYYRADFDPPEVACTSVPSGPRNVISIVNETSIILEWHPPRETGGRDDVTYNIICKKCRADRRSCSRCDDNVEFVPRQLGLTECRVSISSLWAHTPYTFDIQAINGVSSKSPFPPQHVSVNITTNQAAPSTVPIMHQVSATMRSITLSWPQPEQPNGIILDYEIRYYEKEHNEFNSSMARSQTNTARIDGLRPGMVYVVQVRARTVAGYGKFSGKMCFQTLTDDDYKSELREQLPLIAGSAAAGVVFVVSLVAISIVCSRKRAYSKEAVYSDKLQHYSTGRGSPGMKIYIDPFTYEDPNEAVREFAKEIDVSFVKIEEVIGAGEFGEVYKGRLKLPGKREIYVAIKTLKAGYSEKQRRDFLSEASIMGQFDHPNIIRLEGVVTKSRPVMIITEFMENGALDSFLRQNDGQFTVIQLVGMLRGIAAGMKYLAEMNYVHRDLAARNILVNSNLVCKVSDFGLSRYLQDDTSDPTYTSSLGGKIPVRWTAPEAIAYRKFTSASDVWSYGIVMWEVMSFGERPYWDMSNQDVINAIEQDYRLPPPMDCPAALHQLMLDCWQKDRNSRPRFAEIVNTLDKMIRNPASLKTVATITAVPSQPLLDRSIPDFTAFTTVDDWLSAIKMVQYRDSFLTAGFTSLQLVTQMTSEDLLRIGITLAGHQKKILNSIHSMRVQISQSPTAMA
Assign class 1 to entries whose phosphorylation enrichment meets or exceeds 0.4; assign class 0 to the rest.

Worked examples, 2 sequences total:
GDGRFYMKEAI [PGM1_Y66] :: class 1
NNRVFYGNSDR [RS1_Y177] :: class 0

Exam item: # bool: phosphorylation enrichment of SRIWVYNHYRC [BRCA2_Y2621_W2626C] >= 0.4
Marked response: class 1

Exam item: # bool: phosphorylation enrichment of EQLGEYKFQNA [ALB_Y425] >= 0.4
Marked response: class 1

Exam item: # bool: phosphorylation enrichment of RIDPDYMGRVR [IGSF9_Y81_V82M] >= 0.4
Marked response: class 0

Exam item: # bool: phosphorylation enrichment of KKHIPYREHKS [CSNK1G1_Y205] >= 0.4
Marked response: class 1

Exam item: # bool: phosphorylation enrichment of NGSKAYAYVHF [PABPC5_Y147_G146A] >= 0.4
Marked response: class 1

Exam item: # bool: phosphorylation enrichment of FFRKVYHLASV [RBL1_Y796_YF] >= 0.4
Marked response: class 1

Exam item: # bool: phosphorylation enrichment of CNTIHYNYMCN [TP53_Y234_T230N] >= 0.4
Marked response: class 1

----------
target: FGFR3 (UniProt P22607); test: phosphorylation enrichment, bacterial display (enrichment ratio); higher = better substrate or ligand; peptides without Tyr show the background
Sequence (P22607 whole entry, looked up): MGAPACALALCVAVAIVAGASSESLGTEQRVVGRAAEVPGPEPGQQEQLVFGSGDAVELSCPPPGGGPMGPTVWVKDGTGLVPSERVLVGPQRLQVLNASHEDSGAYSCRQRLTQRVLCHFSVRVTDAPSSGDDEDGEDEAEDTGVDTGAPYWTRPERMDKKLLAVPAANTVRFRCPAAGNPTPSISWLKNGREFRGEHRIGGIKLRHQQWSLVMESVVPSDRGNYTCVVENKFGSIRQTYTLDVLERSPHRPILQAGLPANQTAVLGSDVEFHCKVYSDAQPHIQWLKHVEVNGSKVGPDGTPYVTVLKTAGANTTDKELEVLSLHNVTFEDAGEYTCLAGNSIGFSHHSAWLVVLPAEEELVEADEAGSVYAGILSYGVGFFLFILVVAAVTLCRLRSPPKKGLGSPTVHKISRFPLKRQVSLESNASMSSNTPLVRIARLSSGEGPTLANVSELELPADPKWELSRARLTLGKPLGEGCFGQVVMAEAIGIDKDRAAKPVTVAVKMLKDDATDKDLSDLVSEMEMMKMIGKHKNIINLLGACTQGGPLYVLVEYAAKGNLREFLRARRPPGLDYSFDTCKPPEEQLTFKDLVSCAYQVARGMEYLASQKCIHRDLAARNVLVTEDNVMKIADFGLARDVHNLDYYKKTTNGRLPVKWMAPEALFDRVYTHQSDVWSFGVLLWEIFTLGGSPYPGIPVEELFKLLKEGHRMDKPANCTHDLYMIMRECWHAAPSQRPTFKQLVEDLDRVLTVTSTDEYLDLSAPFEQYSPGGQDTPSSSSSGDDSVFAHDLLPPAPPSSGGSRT
measurement type: phosphorylation enrichment
Write the value as a bare number.

DLDLTYIFPNI [PTEN_Y27_YF] :: 2.77

Now look at this entry.
Exam item: Consider the sequence VHFLVYHHHHH [CACNA1H_Y519_H516Y_YF] . State its measured phosphorylation enrichment.
Marked response: 0.834

----------
biological target: Fyn (UniProt P06241); assay: phosphorylation enrichment, bacterial display (enrichment ratio); higher = better substrate or ligand; peptides without Tyr show the background
Sequence (P06241 whole entry, looked up): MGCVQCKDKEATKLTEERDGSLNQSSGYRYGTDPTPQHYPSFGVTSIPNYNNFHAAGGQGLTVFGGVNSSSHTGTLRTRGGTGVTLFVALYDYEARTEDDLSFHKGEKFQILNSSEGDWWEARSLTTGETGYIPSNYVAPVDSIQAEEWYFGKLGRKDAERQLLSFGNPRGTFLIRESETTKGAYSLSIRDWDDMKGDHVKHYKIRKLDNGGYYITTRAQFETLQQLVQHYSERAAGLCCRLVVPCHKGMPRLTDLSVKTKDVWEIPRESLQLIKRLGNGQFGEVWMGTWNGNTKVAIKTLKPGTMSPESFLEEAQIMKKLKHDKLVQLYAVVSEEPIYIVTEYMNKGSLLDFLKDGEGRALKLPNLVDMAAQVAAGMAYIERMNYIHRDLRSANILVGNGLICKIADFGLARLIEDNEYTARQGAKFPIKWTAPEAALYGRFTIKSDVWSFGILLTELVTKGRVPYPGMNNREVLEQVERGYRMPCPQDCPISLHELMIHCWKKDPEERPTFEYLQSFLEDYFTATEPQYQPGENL
Recorded phosphorylation enrichment for the following sequences
Write the value as a bare number.

Exam item: Consider the sequence VLTSKYPGGGG [HBA1_Y141_R142P] . State its measured phosphorylation enrichment.
Marked response: 0.344

Exam item: Consider the sequence EEAAGYAQESQ [CAMKV_Y491] . State its measured phosphorylation enrichment.
Marked response: 0.401

Exam item: Consider the sequence RQQEDYLLYKQ [RARRES1_Y159] . State its measured phosphorylation enrichment.
Marked response: 0.547

Exam item: Consider the sequence AIIEEYLHLND [EIF4G1_Y1253] . State its measured phosphorylation enrichment.
Marked response: 0.493

----------
biological target: Hck (UniProt P08631); test: phosphorylation enrichment, bacterial display (enrichment ratio); higher = better substrate or ligand; peptides without Tyr show the background
Sequence (P08631 whole entry, looked up): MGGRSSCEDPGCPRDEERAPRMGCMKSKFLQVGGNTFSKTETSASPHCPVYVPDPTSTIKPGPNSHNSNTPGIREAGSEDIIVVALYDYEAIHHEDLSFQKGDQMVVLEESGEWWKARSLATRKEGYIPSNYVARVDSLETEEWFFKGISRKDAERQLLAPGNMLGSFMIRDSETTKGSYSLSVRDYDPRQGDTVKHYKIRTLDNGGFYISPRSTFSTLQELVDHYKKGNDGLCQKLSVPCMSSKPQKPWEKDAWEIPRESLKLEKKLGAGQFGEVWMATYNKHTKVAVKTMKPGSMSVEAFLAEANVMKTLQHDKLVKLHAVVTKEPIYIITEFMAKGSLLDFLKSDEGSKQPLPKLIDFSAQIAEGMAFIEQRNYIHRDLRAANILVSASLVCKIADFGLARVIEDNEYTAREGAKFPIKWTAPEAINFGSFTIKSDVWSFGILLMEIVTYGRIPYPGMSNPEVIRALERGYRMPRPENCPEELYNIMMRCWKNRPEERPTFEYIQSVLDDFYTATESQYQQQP
measurement type: phosphorylation enrichment
Write the value as a bare number.

AASTDYYKRGD [PDHA1_Y242] :: 0.568

Exam item: Consider the sequence TVQVAYFTVMM [SPATA17_Y83_M86V_YF] . State its measured phosphorylation enrichment.
Marked response: 0.61

Exam item: Consider the sequence KDPPDYKYQPR [SOX9_Y172_H169P] . State its measured phosphorylation enrichment.
Marked response: 0.353

Exam item: Consider the sequence SQPASYQRRLL [PPIG_Y320] . State its measured phosphorylation enrichment.
Marked response: 0.253

Exam item: Consider the sequence NVVNEYSSELE [FGB_Y172] . State its measured phosphorylation enrichment.
Marked response: 0.628

----------
system: AncSZ; assay: phosphorylation enrichment, bacterial display (enrichment ratio); higher = better substrate or ligand; peptides without Tyr show the background
Recorded phosphorylation enrichment for the following sequences
Write the value as a bare number.

GRLFAYPDTHC [CAT_Y358_R363C] :: 0.784

Exam item: Consider the sequence PPPPAYDDVAQ [TNK2_Y635] . State its measured phosphorylation enrichment.
Marked response: 1.16

Exam item: Consider the sequence LVTRSYLLGNS [LMNA_Y646] . State its measured phosphorylation enrichment.
Marked response: 1.37

Exam item: Consider the sequence SNSATYSGSVA [PDLIM5_Y382] . State its measured phosphorylation enrichment.
Marked response: 0.748

Exam item: Consider the sequence MGCVNYGAYIN [GLB1_Y485_R482C] . State its measured phosphorylation enrichment.
Marked response: 1.32

Exam item: Consider the sequence VDASFCGGRGV [ANTXR2_Y381_Y381C_YF] . State its measured phosphorylation enrichment.
Marked response: 0.818

Exam item: Consider the sequence KKHIPYREHKS [CSNK1G1_Y205] . State its measured phosphorylation enrichment.
Marked response: 1.76

----------
target: SHP2-C SH2; assay: SH2 binding enrichment of the phosphorylated peptide, bacterial display (enrichment ratio); higher = better substrate or ligand; peptides without Tyr show the background;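 note: peptide library displayed on the E. coli surface as eCPX fusions, selected cells deep-sequenced, score is each peptide's frequency after selection divided by its frequency in the input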
measurement type: SH2 binding enrichment
Write the value as a bare number.

FEEVVYQAMEE [TACC3_Y684] :: 0.883

Exam item: Consider the sequence GFFDLYGGEKF [PTPN11_Y66_D61G_YF] . State its measured SH2 binding enrichment.
Marked response: 0.832

Exam item: Consider the sequence GPQGFYSNKLV [PTPN14_Y506_V505F] . State its measured SH2 binding enrichment.
Marked response: 0.708

Exam item: Consider the sequence QRRLVYYERGA [RYR1_Y245_G248R] . State its measured SH2 binding enrichment.
Marked response: 0.677

----------
Recorded phosphorylation enrichment for the following sequences
target: MERTK (UniProt Q12866); assay: phosphorylation enrichment, bacterial display (enrichment ratio); higher = better substrate or ligand; peptides without Tyr show the background
Sequence (Q12866 whole entry, looked up): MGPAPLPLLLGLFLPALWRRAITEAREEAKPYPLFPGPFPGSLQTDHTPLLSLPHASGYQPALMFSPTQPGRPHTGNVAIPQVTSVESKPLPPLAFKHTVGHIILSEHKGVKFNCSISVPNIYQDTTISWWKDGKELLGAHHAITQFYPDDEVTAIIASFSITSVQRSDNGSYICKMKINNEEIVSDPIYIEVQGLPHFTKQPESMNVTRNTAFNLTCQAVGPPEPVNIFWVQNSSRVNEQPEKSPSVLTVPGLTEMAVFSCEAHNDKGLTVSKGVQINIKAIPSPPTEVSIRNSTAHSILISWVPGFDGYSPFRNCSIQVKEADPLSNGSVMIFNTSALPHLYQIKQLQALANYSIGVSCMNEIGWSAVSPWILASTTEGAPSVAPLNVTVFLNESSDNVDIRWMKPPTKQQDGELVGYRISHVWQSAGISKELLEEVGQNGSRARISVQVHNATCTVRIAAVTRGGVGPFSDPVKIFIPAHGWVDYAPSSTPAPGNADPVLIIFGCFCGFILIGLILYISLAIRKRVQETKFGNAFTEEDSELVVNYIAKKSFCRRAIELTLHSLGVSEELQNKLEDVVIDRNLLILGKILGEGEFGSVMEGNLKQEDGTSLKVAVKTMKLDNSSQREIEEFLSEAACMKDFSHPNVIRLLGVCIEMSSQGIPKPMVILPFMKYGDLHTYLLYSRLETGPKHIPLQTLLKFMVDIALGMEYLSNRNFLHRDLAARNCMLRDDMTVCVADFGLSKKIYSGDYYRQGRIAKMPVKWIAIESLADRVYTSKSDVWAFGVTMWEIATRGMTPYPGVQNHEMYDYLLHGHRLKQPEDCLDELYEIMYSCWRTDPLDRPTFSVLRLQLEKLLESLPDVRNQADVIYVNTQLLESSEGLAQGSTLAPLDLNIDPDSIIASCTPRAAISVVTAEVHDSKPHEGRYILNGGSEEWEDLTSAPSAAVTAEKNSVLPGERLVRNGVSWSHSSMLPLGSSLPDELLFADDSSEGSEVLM
Write the value as a bare number.

KDHPDYKFQLR [SOX10_Y171_P175L_YF] :: 0.454
WFQTKYEELQI [KRT6B_Y360_YF] :: 0.403
RQSTLYSFFPT [MSH6_Y8_K13T] :: 16.8
LFNQDYPIHCV [GATM_Y227_S231C_YF] :: 0.729
EQSNPYMVLDI [ROCK2_Y1197] :: 2.28

Exam item: Consider the sequence KGEDFYSVTCH [FHL1_Y149_C150S] . State its measured phosphorylation enrichment.
Marked response: 4.71

Exam item: Consider the sequence HAVYIYDICHV [TWNK_Y508_V507I] . State its measured phosphorylation enrichment.
Marked response: 6.7

Exam item: Consider the sequence SARFRYLLAEK [LDHB_Y173_M175L] . State its measured phosphorylation enrichment.
Marked response: 0.498

Exam item: Consider the sequence MIRSAYALGGL [CPS1_Y590] . State its measured phosphorylation enrichment.
Marked response: 0.449

Exam item: Consider the sequence MLEAPYVDRNS [F10_Y384_V382A] . State its measured phosphorylation enrichment.
Marked response: 0.343

Exam item: Consider the sequence AIIEEYLHLND [EIF4G1_Y1253] . State its measured phosphorylation enrichment.
Marked response: 0.376

Exam item: Consider the sequence CSGNCYLDIRP [FBN1_Y1535_R1530C] . State its measured phosphorylation enrichment.
Marked response: 0.49

Exam item: Consider the sequence GEDDVYDSVPG [FGR_opt_2018] . State its measured phosphorylation enrichment.
Marked response: 0.544

Exam item: Consider the sequence YDCKWYIPLTD [BCR_Y756] . State its measured phosphorylation enrichment.
Marked response: 1.51

----------
target: Hck (UniProt P08631); test: phosphorylation enrichment, bacterial display (enrichment ratio); higher = better substrate or ligand; peptides without Tyr show the background
Recorded phosphorylation enrichment for the following sequences

Below: 5 sequences and their reported phosphorylation enrichment.
CTTILYNFMCN [TP53_Y234_H233L_YF] :: 0.979
GRSTFYWPSPR [GAGE12J_Y10_R13S_YF] :: 0.559
EKSREYDRLFE [PIK3R1_Y463_YF] :: 0.522
KAIMTYVSSFF [ACTN4_Y260_YF] :: 0.531
SYSGEYGSGGG [ZG16_Y30_G32S] :: 0.534

Exam item: Consider the sequence WIPIQYPIISE [NOG_Y222] . State its measured phosphorylation enrichment.
Marked response: 0.439

Exam item: Consider the sequence RSSGGYEPRGC [FUS_Y239_R244C] . State its measured phosphorylation enrichment.
Marked response: 0.258

----------
Recorded phosphorylation enrichment for the following sequences
biological target: Fes (UniProt P07332); assay: phosphorylation enrichment, bacterial display (enrichment ratio); higher = better substrate or ligand; peptides without Tyr show the background
Sequence (P07332 whole entry, looked up): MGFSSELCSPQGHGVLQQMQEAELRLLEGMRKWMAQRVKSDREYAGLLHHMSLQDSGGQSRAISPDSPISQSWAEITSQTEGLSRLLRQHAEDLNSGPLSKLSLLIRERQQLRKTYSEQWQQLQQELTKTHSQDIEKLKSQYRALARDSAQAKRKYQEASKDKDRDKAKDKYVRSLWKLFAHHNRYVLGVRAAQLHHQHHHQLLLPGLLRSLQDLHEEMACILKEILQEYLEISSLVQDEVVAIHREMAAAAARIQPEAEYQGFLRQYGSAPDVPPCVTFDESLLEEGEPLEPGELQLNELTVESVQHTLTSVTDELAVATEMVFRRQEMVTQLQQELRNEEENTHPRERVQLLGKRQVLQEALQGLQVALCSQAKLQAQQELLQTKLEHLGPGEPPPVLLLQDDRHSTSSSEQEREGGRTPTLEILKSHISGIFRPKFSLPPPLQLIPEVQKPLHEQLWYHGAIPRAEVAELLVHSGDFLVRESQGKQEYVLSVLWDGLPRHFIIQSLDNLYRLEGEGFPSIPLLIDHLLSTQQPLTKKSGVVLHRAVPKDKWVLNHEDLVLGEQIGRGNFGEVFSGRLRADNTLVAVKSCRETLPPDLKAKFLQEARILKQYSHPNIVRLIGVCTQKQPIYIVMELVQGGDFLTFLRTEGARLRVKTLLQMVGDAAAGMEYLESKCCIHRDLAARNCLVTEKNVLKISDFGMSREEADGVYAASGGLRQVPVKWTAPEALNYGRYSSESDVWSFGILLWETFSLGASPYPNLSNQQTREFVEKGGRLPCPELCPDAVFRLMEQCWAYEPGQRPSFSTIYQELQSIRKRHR
Write the value as a bare number.

Below: 8 sequences and their reported phosphorylation enrichment.
MSPPGYKLVTG [GJA1_Y286] :: 0.715
ASMAKYFASEI [ACADSB_Y372_YF] :: 0.842
IKSSIYDNRKE [ARAP2_Y380] :: 0.725
QITQVCGFFDE [PPP2CA_Y127_Y127C_YF] :: 1.95
RFLKDYGEFEV [GINS1_Y156_C152Y_YF] :: 1.39
SAAAIYMVRHP [PMP22_Y117_T118M] :: 0.77
MGSYNYLGFAW [SPTLC2_Y178_R183W] :: 0.937
STILLYHIMAW [GPR143_Y157] :: 1.64

Exam item: Consider the sequence LVRAFYCERRW [CARD11_Y970_R975W] . State its measured phosphorylation enrichment.
Marked response: 0.745

Exam item: Consider the sequence NFNPNYCFAGK [ALK_Y1096_D1091N_YF] . State its measured phosphorylation enrichment.
Marked response: 0.821

Exam item: Consider the sequence HEKFLYFLPAS [DYNC2H1_Y346] . State its measured phosphorylation enrichment.
Marked response: 1.8

Exam item: Consider the sequence KGSEGYLAATY [NF1_Y2503] . State its measured phosphorylation enrichment.
Marked response: 0.723

Exam item: Consider the sequence EEVGIYRMSGV [BCR_Y1089_V1091M] . State its measured phosphorylation enrichment.
Marked response: 0.921

Exam item: Consider the sequence LYEDCYLLGTS [ASS1_Y87_R86C] . State its measured phosphorylation enrichment.
Marked response: 2.12
